The origin of these recorded values is BigSolDB 2.1.

- CONDITION DETAILS: in methanol, 303.15 K
ENDPOINT NAME: solubility (mole fraction)

| COMPOUND SMILES | ENDPOINT NAME | RESULT NUMBER |
| --- | --- | --- |
| COc1ccc(-n2nc(C(N)=O)c3c2C(=O)N(c2ccc(N4CCCCC4=O)cc2)CC3)cc1 | solubility (mole fraction) | 0.000669 |

====

- CONDITION DETAILS: in methanol, 318.15 K

| COMPOUND SMILES | solubility (mole fraction) |
| --- | --- |
| COc1ccc(-n2nc(C(N)=O)c3c2C(=O)N(c2ccc(N4CCCCC4=O)cc2)CC3)cc1 | 0.00128 |

====

- CONDITION DETAILS: in acetone, 298.15 K
ENDPOINT NAME: solubility (mole fraction)

| COMPOUND SMILES | RESULT NUMBER |
| --- | --- |
| COc1ccc(-n2nc(C(N)=O)c3c2C(=O)N(c2ccc(N4CCCCC4=O)cc2)CC3)cc1 | 0.00032 |

====

- CONDITION DETAILS: in isopropanol, 328.15 K
ENDPOINT NAME: solubility (mole fraction)

| COMPOUND SMILES | RESULT |
| --- | --- |
| COc1ccc(-n2nc(C(N)=O)c3c2C(=O)N(c2ccc(N4CCCCC4=O)cc2)CC3)cc1 | 0.000404 |

====

- CONDITION DETAILS: in isopropanol, 323.15 K

| COMPOUND SMILES | solubility (mole fraction) |
| --- | --- |
| COc1ccc(-n2nc(C(N)=O)c3c2C(=O)N(c2ccc(N4CCCCC4=O)cc2)CC3)cc1 | 0.00033 |

====

- CONDITION DETAILS: in acetone, 288.15 K

| COMPOUND SMILES | solubility (mole fraction) |
| --- | --- |
| COc1ccc(-n2nc(C(N)=O)c3c2C(=O)N(c2ccc(N4CCCCC4=O)cc2)CC3)cc1 | 0.00024 |

====

- CONDITION DETAILS: in isopropanol, 313.15 K
ENDPOINT NAME: solubility (mole fraction)

| COMPOUND SMILES | ENDPOINT NAME | RESULT NUMBER |
| --- | --- | --- |
| COc1ccc(-n2nc(C(N)=O)c3c2C(=O)N(c2ccc(N4CCCCC4=O)cc2)CC3)cc1 | solubility (mole fraction) | 0.000214 |

====

- CONDITION DETAILS: in acetone, 328.15 K

| COMPOUND SMILES | solubility (mole fraction) |
| --- | --- |
| COc1ccc(-n2nc(C(N)=O)c3c2C(=O)N(c2ccc(N4CCCCC4=O)cc2)CC3)cc1 | 0.000754 |

====

- CONDITION DETAILS: in methanol, 308.15 K
ENDPOINT NAME: solubility (mole fraction)

| COMPOUND SMILES | ENDPOINT NAME | RESULT |
| --- | --- | --- |
| COc1ccc(-n2nc(C(N)=O)c3c2C(=O)N(c2ccc(N4CCCCC4=O)cc2)CC3)cc1 | solubility (mole fraction) | 0.000842 |

====

- CONDITION DETAILS: in acetone, 318.15 K
ENDPOINT NAME: solubility (mole fraction)

| COMPOUND SMILES | RESULT NUMBER |
| --- | --- |
| COc1ccc(-n2nc(C(N)=O)c3c2C(=O)N(c2ccc(N4CCCCC4=O)cc2)CC3)cc1 | 0.000584 |

====

- CONDITION DETAILS: in isopropanol, 293.15 K

| COMPOUND SMILES | solubility (mole fraction) |
| --- | --- |
| COc1ccc(-n2nc(C(N)=O)c3c2C(=O)N(c2ccc(N4CCCCC4=O)cc2)CC3)cc1 | 7.67e-05 |

====

- CONDITION DETAILS: in ethanol, 323.15 K

| COMPOUND SMILES | solubility (mole fraction) |
| --- | --- |
| COc1ccc(-n2nc(C(N)=O)c3c2C(=O)N(c2ccc(N4CCCCC4=O)cc2)CC3)cc1 | 0.000474 |

====

- CONDITION DETAILS: in isopropanol, 318.15 K
ENDPOINT NAME: solubility (mole fraction)

| COMPOUND SMILES | RESULT NUMBER |
| --- | --- |
| COc1ccc(-n2nc(C(N)=O)c3c2C(=O)N(c2ccc(N4CCCCC4=O)cc2)CC3)cc1 | 0.000271 |

====

- CONDITION DETAILS: in acetone, 293.15 K

| COMPOUND SMILES | solubility (mole fraction) |
| --- | --- |
| COc1ccc(-n2nc(C(N)=O)c3c2C(=O)N(c2ccc(N4CCCCC4=O)cc2)CC3)cc1 | 0.000276 |

====

- CONDITION DETAILS: in acetone, 313.15 K

| COMPOUND SMILES | solubility (mole fraction) |
| --- | --- |
| COc1ccc(-n2nc(C(N)=O)c3c2C(=O)N(c2ccc(N4CCCCC4=O)cc2)CC3)cc1 | 0.00051 |

====

- CONDITION DETAILS: in acetone, 308.15 K
ENDPOINT NAME: solubility (mole fraction)

| COMPOUND SMILES | ENDPOINT NAME | RESULT |
| --- | --- | --- |
| COc1ccc(-n2nc(C(N)=O)c3c2C(=O)N(c2ccc(N4CCCCC4=O)cc2)CC3)cc1 | solubility (mole fraction) | 0.000436 |

====

- CONDITION DETAILS: in methanol, 323.15 K
ENDPOINT NAME: solubility (mole fraction)

| COMPOUND SMILES | ENDPOINT NAME | RESULT |
| --- | --- | --- |
| COc1ccc(-n2nc(C(N)=O)c3c2C(=O)N(c2ccc(N4CCCCC4=O)cc2)CC3)cc1 | solubility (mole fraction) | 0.00156 |

====

- CONDITION DETAILS: in methanol, 313.15 K

| COMPOUND SMILES | solubility (mole fraction) |
| --- | --- |
| COc1ccc(-n2nc(C(N)=O)c3c2C(=O)N(c2ccc(N4CCCCC4=O)cc2)CC3)cc1 | 0.00104 |

====

- CONDITION DETAILS: in acetone, 303.15 K
ENDPOINT NAME: solubility (mole fraction)

| COMPOUND SMILES | ENDPOINT NAME | RESULT NUMBER |
| --- | --- | --- |
| COc1ccc(-n2nc(C(N)=O)c3c2C(=O)N(c2ccc(N4CCCCC4=O)cc2)CC3)cc1 | solubility (mole fraction) | 0.000377 |

====

- CONDITION DETAILS: in isopropanol, 303.15 K

| COMPOUND SMILES | solubility (mole fraction) |
| --- | --- |
| COc1ccc(-n2nc(C(N)=O)c3c2C(=O)N(c2ccc(N4CCCCC4=O)cc2)CC3)cc1 | 0.000133 |

====

- CONDITION DETAILS: in water, 323.15 K

| COMPOUND SMILES | solubility (mole fraction) |
| --- | --- |
| COc1ccc(-n2nc(C(N)=O)c3c2C(=O)N(c2ccc(N4CCCCC4=O)cc2)CC3)cc1 | 3.19e-05 |

====

- CONDITION DETAILS: in ethanol, 318.15 K

| COMPOUND SMILES | solubility (mole fraction) |
| --- | --- |
| COc1ccc(-n2nc(C(N)=O)c3c2C(=O)N(c2ccc(N4CCCCC4=O)cc2)CC3)cc1 | 0.000402 |

====

- CONDITION DETAILS: in methanol, 293.15 K

| COMPOUND SMILES | solubility (mole fraction) |
| --- | --- |
| COc1ccc(-n2nc(C(N)=O)c3c2C(=O)N(c2ccc(N4CCCCC4=O)cc2)CC3)cc1 | 0.000416 |

====

- CONDITION DETAILS: in ethanol, 288.15 K
ENDPOINT NAME: solubility (mole fraction)

| COMPOUND SMILES | ENDPOINT NAME | RESULT NUMBER |
| --- | --- | --- |
| COc1ccc(-n2nc(C(N)=O)c3c2C(=O)N(c2ccc(N4CCCCC4=O)cc2)CC3)cc1 | solubility (mole fraction) | 0.000112 |

====

- CONDITION DETAILS: in acetone, 323.15 K

| COMPOUND SMILES | solubility (mole fraction) |
| --- | --- |
| COc1ccc(-n2nc(C(N)=O)c3c2C(=O)N(c2ccc(N4CCCCC4=O)cc2)CC3)cc1 | 0.000669 |
